Listed next: entries and their corresponding mass density.
# Test summary: xn = mol fraction of the nth substance listed
# Measurement context: 318.15 K; 100 kPa; Liquid; Vibrating tube method; x2 = 0.25
Reply with just the number (in kg/m3).

Here's what some known entries look like.
compound="CCCCn1cc[n+](C)c1.N#C[S-] [1-butyl-3-methylimidazolium thiocyanate] + CCCC[n+]1ccn(C)c1.O=S(=O)([N-]S(=O)(=O)C(F)(F)F)C(F)(F)F" measured_metric="mass density" unit_tag=kg/m3 readout_value=1181.2
compound="CC(=O)[O-].CCCCn1cc[n+](C)c1 [1-butyl-3-methylimidazolium acetate] + CCCC[n+]1ccn(C)c1.O=S(=O)([N-]S(=O)(=O)C(F)(F)F)C(F)(F)F" measured_metric="mass density" unit_tag=kg/m3 readout_value=1167.5
compound="CCCCn1cc[n+](C)c1.O=S(=O)([O-])C(F)(F)F [1-butyl-3-methylimidazolium trifluoromethanesulfonate] + CCCC[n+]1ccn(C)c1.O=S(=O)([N-]S(=O)(=O)C(F)(F)F)C(F)(F)F" measured_metric="mass density" unit_tag=kg/m3 readout_value=1322.8
compound="CCCCn1cc[n+](C)c1.F[P-](F)(F)(F)(F)F [1-butyl-3-methylimidazolium hexafluorophosphate] + CCCC[n+]1ccn(C)c1.O=S(=O)([N-]S(=O)(=O)C(F)(F)F)C(F)(F)F" measured_metric="mass density" unit_tag=kg/m3 readout_value=1372.1

Here is another compound to look at.
Give its mass density value. Item: CCCCn1cc[n+](C)c1.COP(=O)([O-])OC [1-butyl-3-methyl-1H-imidazolium dimethylphosphate] + CCCC[n+]1ccn(C)c1.O=S(=O)([N-]S(=O)(=O)C(F)(F)F)C(F)(F)F
1224.1

###

# Measurement context: 288.15 K; 100 kPa; Liquid; Vibrating tube method
Measured metric: mass density (kg/m3)
Express it in kg/m3; write the number only.

Illustrative cases are given below, each with its answer.
compound="CCCCn1cc[n+](C)c1.F[B-](F)(F)F [1-butyl-3-methylimidazolium tetrafluoroborate]" unit_tag=kg/m3 readout_value=1208.8
compound="CCCCn1cc[n+](C)c1.N#CN=C=[N-] [1-butyl-3-methylimidazolium dicyanamide]" unit_tag=kg/m3 readout_value=1066.7

# lookup: mass density of CCCCn1cc[n+](C)c1.N#C[S-] [1-butyl-3-methylimidazolium thiocyanate]
1076.2

###

# Test summary: xn = mol fraction of the nth substance listed
# Measurement context: 328.15 K; 100 kPa; Liquid; Vibrating tube method; x2 = 0.25
Measured metric: mass density (kg/m3)
Express your answer in kg/m3, writing the number without its unit.

Solved cases below.
compound="CCCCn1cc[n+](C)c1.COP(=O)([O-])OC [1-butyl-3-methyl-1H-imidazolium dimethylphosphate] + CCCC[n+]1ccn(C)c1.O=S(=O)([N-]S(=O)(=O)C(F)(F)F)C(F)(F)F" unit_tag=kg/m3 readout_value=1216.8
compound="CCCCn1cc[n+](C)c1.O=S(=O)([O-])C(F)(F)F [1-butyl-3-methylimidazolium trifluoromethanesulfonate] + CCCC[n+]1ccn(C)c1.O=S(=O)([N-]S(=O)(=O)C(F)(F)F)C(F)(F)F" unit_tag=kg/m3 readout_value=1314.5
compound="CC(=O)[O-].CCCCn1cc[n+](C)c1 [1-butyl-3-methylimidazolium acetate] + CCCC[n+]1ccn(C)c1.O=S(=O)([N-]S(=O)(=O)C(F)(F)F)C(F)(F)F" unit_tag=kg/m3 readout_value=1160.3
compound="CCCCn1cc[n+](C)c1.F[P-](F)(F)(F)(F)F [1-butyl-3-methylimidazolium hexafluorophosphate] + CCCC[n+]1ccn(C)c1.O=S(=O)([N-]S(=O)(=O)C(F)(F)F)C(F)(F)F" unit_tag=kg/m3 readout_value=1363.6

Okay, next one:
Fill blank: measured mass density of the compound CCCCn1cc[n+](C)c1.N#C[S-] [1-butyl-3-methylimidazolium thiocyanate] + CCCC[n+]1ccn(C)c1.O=S(=O)([N-]S(=O)(=O)C(F)(F)F)C(F)(F)F is ____.
1174.3
